experiment: Drug repurposing screens with cells derived from glioblastoma tumor samples (AID 1345199); details: GBM patient neurospheres viability, ATP luminescence, 48 h; at 46.1 µM (top of the series); tumour line C; further: on the % scale 0 is the no-effect control and ±100 the full control effect; nearly all actives have a fitted effect of over 40% in size
Inconclusive results are not listed.
activity, negative = cell killing overview
# unit: % | format: bare number

COc1cc(C(=O)NS(=O)(=O)c2ccccc2C)ccc1Cc1cn(C)c2ccc(NC(=O)OC3CCCC3)cc12    5.07
CN1c2cc(O)c(N=NC(N)=O)cc2CC1S(=O)(=O)O (configuration not stated)    -16.8
O=C(O)CO.[NH2-].[NH2-].[Pt+2]    -11
CC1(C)O[C@@H]2C[C@@H]3[C@H]4C[C@@H](F)C5=CC(=O)C=C[C@]5(C)[C@@]4(F)[C@@H](O)C[C@]3(C)[C@]2(C(=O)CO)O1    2.95
CC(C)(C)NC(=O)[C@H]1CN(Cc2cccnc2)CCN1C[C@@H](O)C[C@@H](Cc1ccccc1)C(=O)N[C@H]1c2ccccc2C[C@H]1O    35.7

Item: Nc1ccn([C@@H]2CS[C@H](CO)O2)c(=O)n1 | activity, negative = cell killing: 6.78

The reported value for CC=CC1=C(C(=O)O)N2C(=O)[C@H](NC(=O)[C@H](N)c3ccc(O)cc3)[C@@H]2SC1 in terms of activity, negative = cell killing is -17.4

* * *

test: Quantitative High-Throughput drug screen in 47 multiple myeloma cell lines against the NCATS MIPE library collection: KMS27_JCRB cell viability assay (AID 1918970); conditions: KMS27 myeloma cells, CellTiter-Glo ATP viability, 48 h; series mostly up to 45.8 µM; further: nearly all actives have a fitted effect of over 30% in size
Results filed as inconclusive are left out. Active and inactive are the calls of the source. Calls follow the shape of the dose curve; as a rule, active = well fitted cell-killing curve with a large enough effect; inconclusive = small, poorly fitted or top-dose-only effect, or effect the other way; inactive = no such curve, though single readings can be large or run the other way.
Answer with one of the outcomes given here: class 1 = active, class 0 = inactive

These recorded examples may help you get a feel for the data.
O=c1[nH]nc(Sc2ncc([N+](=O)[O-])s2)n1-c1ccc2c(c1)OCCO2    class 1
COc1cc(C)c(Sc2cnc(NC(=O)c3ccc(CNC(C)C(C)C)cc3)s2)cc1C(=O)N1CCN(C(C)=O)CC1 (stereo not drawn)    class 0
COc1cc2c(Oc3ccc(NC(=O)C4(C(=O)Nc5ccc(F)cc5)CC4)cc3F)ccnc2cc1OCCCN1CCOCC1    class 1

-- ask What was the test verdict on C=CC(=O)Nc1cccc(Oc2nc(Nc3ccc(N4CCN(C)CC4)cc3)ncc2Cl)c1 ?
-- reply class 1

-- ask Could you kindly confirm the outcome this assay logged for COc1cc2ncnc(Nc3ccc(F)c(Cl)c3)c2cc1NC(=O)C=CCN1CCCCC1 ?
-- reply class 1

-- ask Please let me know the test result on file for COc1cc2c(NC3CCN(C(C)C)CC3)nc(C3CCCCC3)nc2cc1OCCCN1CCCC1 .
-- reply class 1

-- ask What is the recorded call for this compound in the test? CC[C@H]1CN2CCc3cc(OC)c(OC)cc3[C@H]2C[C@@H]1C[C@@H]1NCCc2cc(OC)c(OC)cc21
-- reply class 1

-- ask Assay result, entry C[C@]1(CO)CN(c2cc(C(=O)Nc3ccc4c(c3)-c3c(c(C(N)=O)nn3-c3ccc(F)cc3)CC4)c(Cl)cn2)C[C@@]1(C)CO — outcome?
-- reply class 1

* * *

assay: Cell Proliferation Assay against the TMD8 Cell Line (AID 651645); details: TMD8 DLBCL cell line proliferation/viability; at 46.1 µM (top of the series);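 further: cells exposed to compound for 48 h before reading; 100% = DMSO and 0% = 9.2 µM bortezomib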
Overview of reported viability (% of control) across a group of compounds:
# value in %; strip the unit string

COc1cc2c(Oc3ccc4[nH]c(C)cc4c3F)ncnc2cc1OCCCN1CCCC1    1.51
CC(=O)Nc1sc2c(c1-c1nc3ccccc3s1)CNC2    4.93
NC(=O)c1c(OCc2c(F)cc(Br)cc2F)nsc1NC(=O)NCCCCN1CCCC1    8.16
Cc1[nH]nc2ccc(-c3cncc(OC[C@@H](N)Cc4ccccc4)c3)cc12    -0.774

Moving on to the next compound.
Briefly, viability (% of control) measured for COc1cc2ncnc(Nc3ccc(F)c(Cl)c3)c2cc1NC(=O)C=CCN1CCCCC1 : -0.755

* * *

Experiment: qHTS of pediatric cancer cell lines to identify multiple opportunities for drug repurposing: Primary screen for BT-37 cells (AID 1347094)
Details: BT-37 viability, CellTiter-Glo luminescence, 48 h; series mostly up to 57.3 µM
Experimental: Drug repurposing or repositioning has been offered as a strategy for drug development in oncology programs. This approach has special potential for childhood cancers and other rare or orphan diseases, where the expected return on new drug development has been a disincentive to pharmaceuticals. […] We employed a titration-based paradigm (quantitative high-throughput screening or qHTS), where all compounds were tested at multiple concentrations for their effect on cell viability. […]
Records with an inconclusive call do not appear. Active and inactive are the calls of the source. Calls come from the whole dose curve; as a rule, active = well fitted cell-killing curve with a large enough effect; inconclusive = small, poorly fitted or top-dose-only effect; inactive = flat fitted curve, though single readings scatter.
Hello, when you answer, please use one of the following outcomes: active, inactive

// known answers, use as guide
COc1ccc(-c2cc3c(C)nc(N)nc3n(C3CCC(OCCO)CC3)c2=O)cn1 (stereo not drawn)    active
Cc1[nH]nc2ccc(-c3cncc(OC[C@@H](N)Cc4ccccc4)c3)cc12    active
Cc1cnc(Nc2ccc(F)cc2Cl)nc1-c1c[nH]c(C(=O)N[C@H](CO)c2cccc(Cl)c2)c1    active

-- ask Outcome logged for COc1cc(Nc2ncc(F)c(Nc3ccc4c(n3)N(COP(=O)(O)O)C(=O)C(C)(C)O4)n2)cc(OC)c1OC in this assay:
-- reply inactive

-- ask # fetch the recorded call for O=C(O)CO.[NH2-].[NH2-].[Pt+2] here
-- reply inactive

* * *

experiment: qHTS of pediatric cancer cell lines to identify multiple opportunities for drug repurposing: Primary screen for OHS-50 cells (AID 1347103); conditions: OHS-50 osteosarcoma viability, CellTiter-Glo luminescence, 48 h; series mostly up to 57.3 µM; further: potency means the concentration at half of the fitted maximal effect; nearly all actives have a fitted effect of over 40% in size
Inconclusive results are not listed. Calls of active or inactive are those of the source. Calls follow the shape of the dose curve; as a rule, active = well fitted cell-killing curve with a large enough effect; inconclusive = small, poorly fitted or top-dose-only effect; inactive = no such curve, though single readings can be large or run the other way.
List of Potency values.

// solved cases for Potency follow
Nc1ncnc2c1c(-c1cccc(OCc3ccccc3)c1)cn2C1CC(CN2CCCC2)C1 (stereo unspecified)    0.432 µM (active)
C=CC(=O)Nc1cc2c(Nc3ccc(F)c(Cl)c3)ncnc2cc1C#CC(C)(C)N1CCN(C)CC1    3.85 µM (active)
COc1ccc(C(=O)CC2(O)C(=O)Nc3c(Cl)ccc(Cl)c32)cc1 (stereo unspecified)    4.32 µM (active)
CCN1CCN(CC(=O)Nc2ccc(-c3cccc4c(=O)cc(N5CCOCC5)oc34)c3sc4ccccc4c23)CC1    0.172 µM (active)
Cn1cc(-c2ccncc2)c(-c2ccc(OCc3ccc4ccccc4n3)cc2)n1    3.06 µM (active)

Query molecule follows.
Record COc1cccc2c(NCc3ccccc3)nc(-n3c(N)nc4ccccc43)nc12 . Reported Potency: 9.68 µM (active)

* * *

# Z-AUC values compiled below
assay: qHTS drug screen for cell cycle checkpoint inhibitors in PARPi-resistant BRCA-mutant ovarian cancer cell lines. (AID 1963452); conditions: PEO1/OlaR viability, CellTiter-Glo luminescence, 96 h; measured here: PEO1 parental Z-AUC; stronger effect = lower value

Known results for compounds:
COc1cc(OC2CCN(C)CC2)ccc1Nc1ncc2c(n1)n(C1CCCC1)c(=O)n2C    0.287
C1Cc2[nH]nc(-c3nn[nH]n3)c2C1    -0.47
N#Cc1c(O)c2c(-c3ccc(-c4ccccc4O)cc3)csc2[nH]c1=O    1.08
O=C(Nc1ncc(-c2cc(C(F)F)nn2-c2c(Cl)cccc2Cl)s1)C1CC1    -1.49
CC(C)c1noc(N2CCC(COc3ccc(-c4ccc(S(C)(=O)=O)cc4)nc3)CC2)n1    -0.198
CNC(=O)c1ccc(N2C(=S)N(c3cnc(C#N)c(C(F)(F)F)c3)C(=O)C23CCC3)cc1F    -0.208
COc1ccc(OC)c(-c2nnc3ccc(-c4ccc(OC)c(O[C@@H]5CCOC5)c4)nn23)c1    -1.59
CC1(C)CCC(c2ccc(Cl)cc2)=C(CN2CCN(c3ccc(C(=O)NS(=O)(=O)c4ccc(N[C@H](CCN5CCOCC5)CSc5ccccc5)c(S(=O)(=O)C(F)(F)F)c4)cc3)CC2)C1    -0.554
CNC(=O)c1cc(Oc2ccc(NC(=O)Nc3cc(C(C)(C)C)nn3-c3ccc4ncccc4c3)c(F)c2)ccn1    1.09
C=CC(=O)Nc1cccc(Oc2nc(Nc3ccc(N4CCN(C)CC4)cc3)ncc2Cl)c1    -0.559

# Z-AUC of Cc1cc(CN2CCN(c3c(Br)cnc4nc(-c5ccc(N6CCN(C)CC6)cc5)[nH]c34)CC2)no1 = 0.0389

Reported Z-AUC ( Cn1c2cc(S(C)=O)sc2c2cnn(Cc3cccc(N)c3)c(=O)c21 (centres undefined) ) = 0.817

Entry under test: Cc1cc(Nc2cc(NC(=O)c3c(Cl)cccc3Cl)ccn2)nc(N)n1 . Its Z-AUC was -1.26

get_value(item= CC(C)c1cnn2c(NCc3ccccc3)cc(N[C@@H](CO)[C@H](O)CO)nc12 , readout=Z-AUC) returns -1.92

Given item CN[C@H]1CCc2cc(OC)c(OC)c(OC)c2-c2ccc(OC)c(=O)cc21 , the value recorded as its Z-AUC is -1.41

Please fill in: Z-AUC reported for O=C(O)[C@H](Cc1c[nH]c2ccccc12)N1C(=O)c2ccccc2C1=O = 0.982

src = PubChem BioAssay (NCATS)
